// data source = patent US11840686B2

System: human PKK mRNA
Assay explanation: Dose-dependent antisense inhibition of human PKK in HepaRG cells, 0.11-3.00 uM (Example 6)
Format: cell-based
Assay conditions: electroporation, 3.00 μM, approx. 16 hours, relative to untreated control cells
Strand notation (5' to 3'): a small letter for the sugar, then the base; units joined by * are phosphorothioate-linked, units joined directly phosphodiester-linked; [ ] holds rarer units or linkages, { } end groups; capitals alone tell only the bases. e = 2'-O-(2-methoxyethyl) (MOE); k = constrained ethyl (cEt); [5mC] = 5-methylcytosine; d = 2'-deoxy (DNA)
Measure name: percent inhibition of PKK mRNA, 3.00 μM (%)
Expressed in %, but write only the number.

Sample records with percent inhibition of PKK mRNA, 3.00 μM:
Reported percent inhibition of PKK mRNA, 3.00 μM, substance 547808 (e[5mC]*eA*kT*d[5mC]*dT*dG*dG*d[5mC]*dA*dG*dT*dA*dT*kT*kG*eG; antisense) [compound 547808] : ____
71

Reported percent inhibition of PKK mRNA, 3.00 μM, substance 547948 (eA*eG*kG*dA*dA*d[5mC]*dT*dT*dG*dG*dT*dG*dT*kG*k[5mC]*e[5mC]; antisense) [compound 547948] : ____
97

Reported percent inhibition of PKK mRNA, 3.00 μM, substance 547769 (antisense eT*eT*kG*dG*dA*dG*dG*dT*dG*dA*dG*dT*d[5mC]*kT*k[5mC]*eT) [compound 547769] : ____
96

Reported percent inhibition of PKK mRNA, 3.00 μM, substance 548174 (eT*e[5mC]*kT*d[5mC]*dA*dG*dT*dT*dG*d[5mC]*dG*dA*d[5mC]*k[5mC]*kT*e[5mC]; antisense) [compound 548174] : ____
62

Reported percent inhibition of PKK mRNA, 3.00 μM, substance 547979 (antisense eG*eT*k[5mC]*dT*d[5mC]*dT*dT*dG*dG*d[5mC]*dA*dA*dA*k[5mC]*kA*eT) [compound 547979] : ____
97

More entries:
Reported percent inhibition of PKK mRNA, 3.00 μM, substance 548570 (eA*eT*kG*d[5mC]*d[5mC]*dT*dT*dG*dT*dG*d[5mC]*d[5mC]*dT*kA*kT*eT; antisense) [compound 548570] : ____
94

Reported percent inhibition of PKK mRNA, 3.00 μM, substance 548010 (eA*eG*kT*dG*dT*dT*dA*d[5mC]*dA*d[5mC]*dA*dA*dT*k[5mC]*kT*e[5mC]; antisense) [compound 548010] : ____
64

Reported percent inhibition of PKK mRNA, 3.00 μM, substance 547861 (antisense eA*e[5mC]*kT*d[5mC]*d[5mC]*dT*d[5mC]*dT*d[5mC]*dA*dT*dA*dT*k[5mC]*kA*eA) [compound 547861] : ____
84

Reported percent inhibition of PKK mRNA, 3.00 μM, substance 548278 (antisense eG*eG*kT*dT*d[5mC]*d[5mC]*d[5mC]*dT*dA*dG*d[5mC]*dG*dG*kT*k[5mC]*e[5mC]) [compound 548278] : ____
93

Reported percent inhibition of PKK mRNA, 3.00 μM, substance 547997 (antisense eT*eT*kG*dT*dG*dT*d[5mC]*d[5mC]*d[5mC]*dA*dT*dA*d[5mC]*kG*k[5mC]*eA) [compound 547997] : ____
82

Reported percent inhibition of PKK mRNA, 3.00 μM, substance 548155 (e[5mC]*eG*kT*dG*d[5mC]*dT*dG*dA*dA*dA*dG*d[5mC]*dG*kG*kG*e[5mC]; antisense) [compound 548155] : ____
81

Reported percent inhibition of PKK mRNA, 3.00 μM, substance 548422 (antisense eG*eT*kA*dT*d[5mC]*dA*d[5mC]*dT*dG*dT*d[5mC]*d[5mC]*dT*kA*kT*eA) [compound 548422] : ____
93

----------
Recorded % inhibition by entry
System: human PKK mRNA
Assay explanation: Antisense inhibition of human PKK mRNA in HepaRG cells, 3,000 nM (Example 1)
Type: cell-based
Assay conditions: Table 3; HepaRG cells, electroporation with 3,000 nM antisense oligonucleotide, approx. 24 hours; PKK mRNA by RT-PCR (RTS3454), relative to untreated control cells
Strand notation (5' to 3'): a small letter for the sugar, then the base; units joined by * are phosphorothioate-linked, units joined directly phosphodiester-linked; [ ] holds rarer units or linkages, { } end groups; capitals alone tell only the bases. e = 2'-O-(2-methoxyethyl) (MOE); [5mC] = 5-methylcytosine; d = 2'-deoxy (DNA)
Expressed in %, but write only the number.

Sample records with % inhibition:
Reported % inhibition, substance 531102 (eT*eG*e[5mC]*e[5mC]*eT*d[5mC]*dT*dT*dT*dA*dA*dT*dA*dA*dA*eA*eA*e[5mC]*eT*e[5mC]; antisense) [compound 531102] : ____
42

Reported % inhibition, substance 531094 (eG*eA*eA*eT*eG*dT*d[5mC]*dA*dG*dG*d[5mC]*d[5mC]*dT*d[5mC]*dT*eG*eG*eG*e[5mC]*e[5mC]; antisense) [compound 531094] : ____
48

Reported % inhibition, substance 531152 (antisense eG*eT*eT*eA*eT*dG*dG*dA*dT*dA*dT*dA*dG*dA*d[5mC]*eT*eT*eT*eA*eA) [compound 531152] : ____
0

More entries:
Reported % inhibition, substance 531147 (antisense e[5mC]*e[5mC]*eA*eT*eT*dA*dT*dT*dT*d[5mC]*d[5mC]*dA*dT*d[5mC]*dA*e[5mC]*e[5mC]*eT*eG*e[5mC]) [compound 531147] : ____
18

Reported % inhibition, substance 531156 (antisense eT*e[5mC]*eT*eG*eA*dA*dA*dA*dG*d[5mC]*d[5mC]*d[5mC]*dT*d[5mC]*d[5mC]*eG*eA*eG*e[5mC]*eT) [compound 531156] : ____
0

Reported % inhibition, substance 531124 (antisense eG*eT*eA*e[5mC]*eT*dA*dA*dA*d[5mC]*dA*dT*d[5mC]*d[5mC]*dT*dA*eA*eG*eT*eG*eA) [compound 531124] : ____
2

----------
Tested on: human PKK mRNA
Assay explanation: Antisense inhibition of human PKK mRNA in HepaRG cells, 3,000 nM (Example 1)
Format: cell-based
Assay conditions: Table 4; HepaRG cells, electroporation with 3,000 nM antisense oligonucleotide, approx. 24 hours; PKK mRNA by RT-PCR (RTS3454), relative to untreated control cells
Strand notation (5' to 3'): a small letter for the sugar, then the base; units joined by * are phosphorothioate-linked, units joined directly phosphodiester-linked; [ ] holds rarer units or linkages, { } end groups; capitals alone tell only the bases. e = 2'-O-(2-methoxyethyl) (MOE); [5mC] = 5-methylcytosine; d = 2'-deoxy (DNA)
Measure name: % inhibition

Reported % inhibition, substance 531230 (e[5mC]*eT*eT*eA*e[5mC]*dT*dG*dG*dG*d[5mC]*dT*dA*dA*dA*dA*eT*e[5mC]*eA*eA*eG; antisense) [compound 531230] : ____
46%

Reported % inhibition, substance 531186 (e[5mC]*e[5mC]*eA*eT*eT*dA*d[5mC]*dT*d[5mC]*dT*d[5mC]*dA*dA*dG*d[5mC]*eT*e[5mC]*e[5mC]*eA*e[5mC]; antisense) [compound 531186] : ____
75%

# input for lookup
Reported % inhibition, substance 531226 (eG*eA*e[5mC]*eA*eG*dT*dA*dG*dA*dG*dA*d[5mC]*dT*dG*dG*eG*eA*eA*eG*eG; antisense) [compound 531226] : ____
12%

----------
System: human PKK mRNA
Assay explanation: Antisense inhibition of human PKK mRNA in HepaRG cells, 1,000 nM, MOE/deoxy/cEt oligonucleotides (Example 3)
Type: cell-based
Assay conditions: Table 27; HepaRG cells, 1,000 nM antisense oligonucleotide; human PKK mRNA
Strand notation (5' to 3'): a small letter for the sugar, then the base; units joined by * are phosphorothioate-linked, units joined directly phosphodiester-linked; [ ] holds rarer units or linkages, { } end groups; capitals alone tell only the bases. e = 2'-O-(2-methoxyethyl) (MOE); k = constrained ethyl (cEt); [5mC] = 5-methylcytosine; d = 2'-deoxy (DNA)
Think of 30% as a floor: if % inhibition stands on it or above, it is Condition met; beneath it, Condition not met.

Observe how each entry below is paired with its result.
Answer whether % inhibition of 548330 (antisense eG*eA*k[5mC]*dT*dA*dG*d[5mC]*dT*dT*d[5mC]*dT*dA*d[5mC]*kT*kA*e[5mC]) [compound 548330] is greater than or equal to 30%.
Condition met

Answer whether % inhibition of 548351 (antisense e[5mC]*eT*kG*dG*dA*dA*dA*d[5mC]*dG*dA*dG*dA*d[5mC]*kA*k[5mC]*eA) [compound 548351] is greater than or equal to 30%.
Condition met

Answer whether % inhibition of 548322 (eA*eG*kG*dG*dA*dA*dA*dT*dT*dA*dG*dA*dG*kG*k[5mC]*eA; antisense) [compound 548322] is greater than or equal to 30%.
Condition met

Answer whether % inhibition of 548321 (e[5mC]*eT*kG*d[5mC]*dA*dT*d[5mC]*dT*dG*dG*dA*d[5mC]*dT*kA*kT*eG; antisense) [compound 548321] is greater than or equal to 30%.
Condition met

More entries:
Answer whether % inhibition of 548336 (antisense eG*e[5mC]*kA*d[5mC]*dA*dT*dT*dA*dG*dG*dA*dG*dG*kT*kA*eG) [compound 548336] is greater than or equal to 30%.
Condition not met
